Source listed as patent US20090192147A1.

# Test system: OVCAR3 ovarian tumor cell line
# assaySummary: In vitro cell culture growth assay (MTS)
# Assay type: cell-based
# testSettings: Homo sapiens, OVCAR-3, 72 h, growth inhibition, three days after drug treatment
readoutName: IC50 (µM)

In the examples that follow, each entry is paired with its recorded IC50.
- structureSmiles: "COc1ccc2c(c1)c(/C=C1\\Oc3cc(O)cc(O)c3C1=O)c1n2CCOC1"
  readoutUnit: "µM"
  measuredNumber: 1
- structureSmiles: "COc1ccc2c(c1)c(/C=C1\\Oc3cc(O)cc(O)c3C1=O)c1n2CCNC1=O"
  readoutUnit: "µM"
  measuredNumber: 4.95
- structureSmiles: "COc1ccc2c(c1)c(/C=C1\\Oc3cc(O)cc(O)c3C1=O)c1n2CCN(C)C1=O"
  readoutUnit: "µM"
  measuredNumber: 3.6

I = COc1ccc2c(c1)c(/C=C1\Oc3cc(O)ccc3C1=O)c1n2CCNC1
II = COc1ccc2c(c1)c(/C=C1\Oc3cc(O)ccc3C1=O)c1n2CCOC1=O
Query: Which value of IC50 is numerically greater: that of I or that of II ? I would appreciate it if you answered with the label of your choice.
Response: II

====

// pIC50 collected for PI3K-gamma (Homo sapiens, UniProt P48736)
pIC50: −log10 of the molar value.
readoutName: pIC50

- structureSmiles: "COc1ccc2c(c1)c(/C=C1\\Oc3cc(O)cc(O)c3C1=O)c1n2CCNC1"
  systemName: "PI3K-gamma (Homo sapiens, UniProt P48736)"
  pIC50: 6.94
- structureSmiles: "COc1ccc2c(c1)c(/C=C1\\Oc3cc(O)cc(O)c3C1=O)c1n2CCNC1=O"
  systemName: "PI3K-gamma (Homo sapiens, UniProt P48736)"
  pIC50: 7.61
- structureSmiles: "COc1ccc2c(c1)c(/C=C1\\Oc3cc(O)ccc3C1=O)c1n2CCOC1=O"
  systemName: "PI3K-gamma (Homo sapiens, UniProt P48736)"
  pIC50: 7.12

I = COc1ccc2c(c1)c(/C=C1\Oc3cc(O)ccc3C1=O)c1n2CCNC1
II = COc1ccc2c(c1)c(/C=C1\Oc3cc(O)cc(O)c3C1=O)c1n2CCOC1
Query: Which value of pIC50 is numerically greater: that of I or that of II ? I would appreciate it if you answered with the label of your choice.
Response: II

====

# systemName: human TOR (FLAG-TOR) (Homo sapiens)
# Construct: FLAG
# assaySummary: mTOR kinase assay, purified enzyme, DELFIA format
# testSettings: 100 μM ATP, His6-S6K substrate
readoutName: IC50 (nM)

- structureSmiles: "COc1ccc2c(c1)c(/C=C1\\Oc3cc(O)ccc3C1=O)c1n2CCOC1=O"
  IC50 [nM]: 114
- structureSmiles: "COc1ccc2c(c1)c(/C=C1\\Oc3cc(O)cc(O)c3C1=O)c1n2CCOC1=O"
  IC50 [nM]: 24
- structureSmiles: "COc1ccc2c(c1)c(/C=C1\\Oc3cc(O)cc(O)c3C1=O)c1n2CCN(C)C1"
  IC50 [nM]: 9

P = COc1ccc2c(c1)c(/C=C1\Oc3cc(O)cc(O)c3C1=O)c1n2CCNC1
Q = COc1ccc2c(c1)c(/C=C1\Oc3cc(O)ccc3C1=O)c1n2CCNC1
R = COc1ccc2c(c1)c(/C=C1\Oc3cc(O)cc(O)c3C1=O)c1n2CCN(C)C1=O
S = COc1ccc2c(c1)c(/C=C1\Oc3cc(O)ccc3C1=O)c1n2CCC1
Query: Kindly order the items shown according to IC50, from the highest value down. When ranking, write the labels in the order the request describes.
Response: Q, S, P, R

====

# System: OVCAR3 ovarian tumor cell line
# assaySummary: In vitro cell culture growth assay (MTS)
# Format: cell-based
# testSettings: Homo sapiens, OVCAR-3, 72 h, growth inhibition, three days after drug treatment
readoutName: IC50 (nM)

- structureSmiles: "COc1ccc2c(c1)c(/C=C1\\Oc3cc(O)cc(O)c3C1=O)c1n2CCN(C)C1"
  systemName: "OVCAR3 ovarian tumor cell line"
  readoutName: "IC50"
  readoutUnit: "nM"
  measuredNumber: 1670

A = COc1ccc2c(c1)c(/C=C1\Oc3cc(O)cc(O)c3C1=O)c1n2CCNC1
B = COc1ccc2c(c1)c(/C=C1\Oc3cc(O)ccc3C1=O)c1n2CCC1
Query: Smaller IC50 value, A vs B ? I would appreciate it if you answered with the label of your choice.
Response: A

====

# Test system: PC3-MM2 cells
# assaySummary: In vitro cell culture growth assay (MTS)
# Type: cell-based
# testSettings: Homo sapiens, PC3MM2, 72 h, growth inhibition, three days after drug treatment
pIC50: −log10 of the molar value.
readoutName: pIC50

- structureSmiles: "COc1ccc2c(c1)c(/C=C1\\Oc3cc(O)cc(O)c3C1=O)c1n2CCOC1"
  systemName: "PC3-MM2 cells"
  pIC50: 5.72
- structureSmiles: "COc1ccc2c(c1)c(/C=C1\\Oc3cc(O)ccc3C1=O)c1n2CCNC1"
  systemName: "PC3-MM2 cells"
  pIC50: 5.82
- structureSmiles: "COc1ccc2c(c1)c(/C=C1\\Oc3cc(O)cc(O)c3C1=O)c1n2CCNC1"
  systemName: "PC3-MM2 cells"
  pIC50: 5.66
- structureSmiles: "COc1ccc2c(c1)c(/C=C1\\Oc3cc(O)cc(O)c3C1=O)c1n2CCOC1=O"
  systemName: "PC3-MM2 cells"
  pIC50: 5.25

1 = COc1ccc2c(c1)c(/C=C1\Oc3cc(O)ccc3C1=O)c1n2CCC1
2 = COc1ccc2c(c1)c(/C=C1\Oc3cc(O)cc(O)c3C1=O)c1n2CCN(C)C1
Query: Which value of pIC50 is numerically greater: that of 1 or that of 2 ? I would appreciate it if you answered with the label of your choice.
Response: 2
(2: 5.79, 1: 5.47)

====

# Tested on: PC3-MM2 cells
# assaySummary: In vitro cell culture growth assay (MTS)
# Type: cell-based
# testSettings: Homo sapiens, PC3MM2, 72 h, growth inhibition, three days after drug treatment
pIC50: −log10 of the molar value.
# pIC50 per record follows

In the examples that follow, each entry is paired with its recorded pIC50.
- molecule: "COc1ccc2c(c1)c(/C=C1\\Oc3cc(O)ccc3C1=O)c1n2CCOC1=O [J]"
  result: "< 5.00"
- molecule: "COc1ccc2c(c1)c(/C=C1\\Oc3cc(O)cc(O)c3C1=O)c1n2CCNC1=O [N]"
  result: "< 5.00"

Let us move to another entry and its pIC50.
Query: Quick one: pIC50 for COc1ccc2c(c1)c(/C=C1\Oc3cc(O)cc(O)c3C1=O)c1n2CCN(C)C1=O [Q] ?
Response: 5.30
